Data credit: patent US9326973B2

Here the recorded Fold-Synergistic 1a (Q30E) is given for each entry.
Test system: HCV replicon, genotype-1a variant with glutamine 30 changed to glutamate in the NS5A protein
test.description: microbe, parasite or virus in culture
Format: cell-based, HCV genotype 1a
assay.setup: HCV replicon genotype 1a Q30E (Q→E) variant; test compound titrated with an NS5A-targeting compound (BMS-790052 fixed at 200 nM); ranking of synergist activity

# smiles.str, Fold-Synergistic 1a (Q30E)
rows = [
    ("COC(=O)N[C@@H](C(=O)N[C@H](c1nc(-c2ccc(-c3ccc(-c4c[nH]c([C@@H](NC(=O)[C@H](NC(=O)OC)C(C)C)C5CCCC5)n4)cc3)cc2)c[nH]1)C1CCCC1)C(C)C", ">10 fold"),
    ("CC(C)(C)OC(=O)N1CCC[C@@H]1C(=O)N[C@H](c1nc(-c2ccc(-c3ccc(-c4c[nH]c([C@@H](NC(=O)[C@H]5CCCN5C(=O)OC(C)(C)C)C(C)(C)C)n4)cc3)cc2)c[nH]1)C(C)(C)C", ">100 fold"),
    ("CN(C)C(=O)C(=O)N[C@H](c1nc(-c2ccc(-c3ccc(-c4c[nH]c([C@@H](NC(=O)C(=O)N(C)C)C(C)(C)C)n4)cc3)cc2)c[nH]1)C(C)(C)C", ">100 fold"),
    ("O=C(c1ccc(-c2ccccc2)o1)N1CCC[C@H]1c1ncc(-c2ccc(-c3ccc(-c4cnc([C@@H]5CCCN5C(=O)c5ccc(-c6ccccc6)o5)[nH]4)cc3)cc2)[nH]1", ">10 fold"),
    ("O=C(CC(c1ccccc1)c1ccccc1)N1CCC[C@H]1c1ncc(-c2ccc(-c3ccc(-c4cnc([C@@H]5CCCN5C(=O)CC(c5ccccc5)c5ccccc5)[nH]4)cc3)cc2)[nH]1", ">10 fold"),
]
